target: mutant form of rice EPSPS (Oryza sativa, UniProt A0A0N9WU17, P177S/T173I); test: EPSPS enzyme assay (radiochemical) of purified mutant rice EPSPS
Sequence (A0A0N9WU17 72-515 T173I/P177S): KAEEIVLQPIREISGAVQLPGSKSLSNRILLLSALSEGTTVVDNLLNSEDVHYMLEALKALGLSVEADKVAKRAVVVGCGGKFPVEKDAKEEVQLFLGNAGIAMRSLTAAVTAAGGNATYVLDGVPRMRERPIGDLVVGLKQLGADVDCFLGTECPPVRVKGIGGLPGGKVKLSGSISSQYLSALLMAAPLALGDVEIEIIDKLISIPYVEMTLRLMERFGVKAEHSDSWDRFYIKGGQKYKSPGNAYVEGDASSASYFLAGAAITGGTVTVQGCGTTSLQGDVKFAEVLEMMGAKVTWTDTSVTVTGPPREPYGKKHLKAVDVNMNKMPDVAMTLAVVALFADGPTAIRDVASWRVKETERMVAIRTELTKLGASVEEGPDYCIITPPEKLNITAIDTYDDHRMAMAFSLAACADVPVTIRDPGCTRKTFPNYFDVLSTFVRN
pKi: −log10 of the molar value. Counter-ions that a name gives are not always drawn.
measure: pKi

Please supply the value of reported pKi for the item O=C(O)CNCP(=O)(O)O [potassium salt of glyphosate] ~3.70

Values were extracted from patent US20030049814A1.
